B1: Natural cytotoxicity triggering receptor 3 (Homo sapiens), O14931 (parent)
chain: MAWMLLLILIMVHPGSCALWVSQPPEIRTLEGSSAFLPCSFNASQGRLAIGSVTWFRDEVVPGKEVRNGTPEFRGRLAPLASSRFLHDHQAELHIRDVRGHDASIYVCRVEVLGLGVGTGNGTRLVVEKEHPQLGAGTVLLLRAGFYAVSFLSVAVGSTVYYQGKCLTWKGPRRQLPAVVPAPLPPPCGSSAHLLPPVPGG
partner: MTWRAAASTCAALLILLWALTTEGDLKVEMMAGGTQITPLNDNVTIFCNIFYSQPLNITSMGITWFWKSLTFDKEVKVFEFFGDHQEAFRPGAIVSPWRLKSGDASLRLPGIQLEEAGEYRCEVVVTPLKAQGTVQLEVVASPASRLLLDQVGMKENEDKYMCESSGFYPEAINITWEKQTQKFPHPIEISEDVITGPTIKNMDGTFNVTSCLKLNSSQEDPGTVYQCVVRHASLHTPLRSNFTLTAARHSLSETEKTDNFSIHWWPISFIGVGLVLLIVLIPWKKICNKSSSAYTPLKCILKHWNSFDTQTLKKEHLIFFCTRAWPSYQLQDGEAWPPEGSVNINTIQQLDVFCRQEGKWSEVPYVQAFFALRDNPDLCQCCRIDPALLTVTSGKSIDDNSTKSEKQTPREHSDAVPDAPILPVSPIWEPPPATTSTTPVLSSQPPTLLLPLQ

# Variants of: B1
# experimentalSetup: with nr3l1_human NCR3LG1, Q68D85

{"variantCode": "P132A", "effect of a mutation on the interaction": "with no effect"}
{"variantCode": "L141A", "effect of a mutation on the interaction": "with no effect"}
{"variantCode": "G137A", "effect of a mutation on the interaction": "with no effect"}
